ASSAY PROCEDURE: small molecules captured by biotinylated probe aFST – biochemical, small-molecule microarray, fluorescence 635/667, stem cell growth factor project, primary screen (AID 1086);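 also: score merges 667 nm fluorescence with signal-to-noise of each printed compound spot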
MEASUREMENT SETUP: higher = more signal
The following compounds are shown together with reported composite z-score values.
Give a plain numeric answer without units written out.

So what does the record say about composite z-score for CCN(CC)c1ccc(N2CC=CC34O[C@@H]5C=CCCOC(=O)C5[C@H]3C(=O)N(C(C)CO)[C@@H]4C2=O)cc1 (stereo not given in full) ?
-0.0426

So what does the record say about composite z-score for COC(=O)[C@@]1(Cc2ccc(F)cc2)[C@H]2c3cc(C(=O)N(C)C)n(CCc4ccc(O)c(O)c4)c3C[C@H]2CN1C(=O)c1ccccc1 ?
0.662

So what does the record say about composite z-score for C=CCC(OC(C)=O)[C@@H]1[C@@H](N(Cc2cccc3ccccc23)C(=O)Cc2ccc(OC)cc2)c2cc(OCCCO)ccc2N1C(=O)Cc1ccc2ccccc2c1 (stereo not given in full) ?
0.165

So what does the record say about composite z-score for COC(=O)[C@@]1(Cc2ccc(OC)cc2)[C@H]2c3cc(C(=O)N4CCCC4)n(Cc4c(CO)[nH]cc(C)c4=O)c3C[C@H]2CN1C(=O)c1ccccc1 ?
0.829

So what does the record say about composite z-score for O=C1C2C=CC(C(O)c3cccs3)N(Nc3ccc([N+](=O)[O-])cc3)C2C(=O)N1c1ccccc1 (stereo not given) ?
0.611

So what does the record say about composite z-score for CCOC(=O)C1=CCC(c2cc3ccccc3[nH]2)N(CCN2CC(C(=O)OCC)=CCC2c2cc3ccccc3[nH]2)C1 (stereo not given) ?
0.74

So what does the record say about composite z-score for O=C1O[C@H](c2ccccc2)[C@H](c2ccccc2)N2[C@H]1[C@@H](C(=O)N1CCN(c3ncccn3)CC1)[C@]1(C(=O)Nc3ccc(C#CCCO)cc31)[C@H]2c1ccc(O)cc1 ?
0.0354

So what does the record say about composite z-score for CN(C)CCCCNC(=O)[C@H]1C[C@H]2C(=O)NCC(=O)N2[C@H]1c1ccc(O)cc1 ?
0.0525

So what does the record say about composite z-score for COC(=O)[C@@]1(Cc2ccccc2)[C@H]2c3cc(C(=O)N4CCCC4)n(Cc4ccc(OC)c(OC)c4)c3C[C@H]2CN1C(=O)c1ccccc1 ?
1.88

So what does the record say about composite z-score for CC1CC/C=C\[C@H]2OC34C=CCN(c5ccc(Cl)cc5)C(=O)[C@H]3N(CCCCCCO)C(=O)[C@]4(C)C2C(=O)O1 (stereo not given in full) ?
-0.56

====

ASSAY PROCEDURE: compound effects on differentiated 3T3-L1 adipocyte viability – cell-based, 3T3-L1 adipocytes, calcein-AM fluorescence, 48 h, basal, profiling panel (AID 1163); also: test concentration not given here
MEASUREMENT SETUP: 3T3-L1 adipocytes viability, higher = more signal
PROPERTY LABEL: z-score

Below: 5 compounds and their reported z-score.
COMPOUND	ENDPOINT RESULT
O=C1[C@H]2C=C(I)[C@H](C[C@@H]2c2ccccc2)[C@@]12CO2	-0.417
COc1ccc([Si](C)(C)[C@@H]2[C@@H](CC(=O)N3Cc4ccccc4C[C@H]3CO)O[C@]3(C(=O)N(Cc4cccc(N5CCOC5=O)c4)c4ccccc43)[C@H]2C)cc1	1.69
O=C(NCCN1CCOCC1)[C@@H]1c2ccccc2C(=O)N(Cc2ccccc2C(F)(F)F)[C@H]1c1ccc(CO)cc1	0.783
N#Cc1ccc(-c2cccc(=O)o2)cc1	-1.13
COc1cc(OC)c(C(O)C2C=CC3C(=O)N(c4ccccc4)C(=O)C3N2Nc2ccc(C(C)C)cc2)cc1Br (stereo unspecified)	-1.15

So what does the record say about z-score for CC1CC/C=C\[C@H]2OC34C=CCN(Cn5nnc6ccccc65)C(=O)[C@H]3N(CCCCCCO)C(=O)[C@@H]4C2C(=O)O1 (stereo partly specified) ?
-0.0662

====

TEST TARGET: Luciferin 4-monooxygenase (Photinus pyralis) (UniProt P08659)
Sequence (P08659 whole entry, looked up): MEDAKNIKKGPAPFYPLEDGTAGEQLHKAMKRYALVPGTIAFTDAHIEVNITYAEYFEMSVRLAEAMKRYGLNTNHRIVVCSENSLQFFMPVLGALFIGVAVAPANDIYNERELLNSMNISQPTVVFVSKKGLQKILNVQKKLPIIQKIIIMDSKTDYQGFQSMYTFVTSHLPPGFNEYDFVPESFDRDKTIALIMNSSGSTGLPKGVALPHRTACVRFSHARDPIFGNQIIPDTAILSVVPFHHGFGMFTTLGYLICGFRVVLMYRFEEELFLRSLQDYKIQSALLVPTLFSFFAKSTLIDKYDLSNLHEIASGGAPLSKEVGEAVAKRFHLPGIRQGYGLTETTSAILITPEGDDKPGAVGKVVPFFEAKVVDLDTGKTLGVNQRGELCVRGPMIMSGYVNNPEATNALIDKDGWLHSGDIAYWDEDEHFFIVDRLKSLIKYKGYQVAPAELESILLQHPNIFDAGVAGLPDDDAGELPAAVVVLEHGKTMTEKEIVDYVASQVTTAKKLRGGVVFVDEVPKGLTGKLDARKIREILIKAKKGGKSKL
ASSAY PROCEDURE: inhibition of purified Photinus pyralis luciferase – biochemical, luminescence, purified enzyme, 2006 set, primary screen (AID 1141);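 also: cell-free assay with purified firefly luciferase at 100 ng per well in PBS; test concentration not given here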
MEASUREMENT SETUP: purified firefly luciferase, SteadyGlo luminescence, 30 min; higher = more signal, called active from +8 up or from −8 down
PROPERTY LABEL: z-score
Give a plain numeric answer without units written out.

Below: 4 compounds and their reported z-score.
COMPOUND	TEST TARGET	z-score
C=CCOC(=O)[C@H]1[C@@H]2C(=O)O[C@@H](c3ccccc3)[C@@H](c3ccccc3)N2[C@@H](c2ccc(OCCOC(=O)[C@@H]3C[C@@H]4C(=O)N[C@@H](CCCC[N+](C)(C)C)C(=O)N4[C@@H]3c3ccc(O)cc3)cc2)[C@]12C(=O)Nc1ccc(I)cc12	Luciferin 4-monooxygenase (Photinus pyralis) (UniProt P08659)	-2.99
COc1ccc([Si](C)(C)[C@H]2[C@H](CC(=O)N3Cc4ccccc4C[C@H]3CO)O[C@@]3(C(=O)N(C)c4c(Br)cc(C)cc43)[C@@H]2C)cc1	Luciferin 4-monooxygenase (Photinus pyralis) (UniProt P08659)	-0.0165
CC1=C([C@H](O)CCc2ccccc2)[C@H](CO)n2c(=O)n(-c3ccccc3)c(=O)n2C1	Luciferin 4-monooxygenase (Photinus pyralis) (UniProt P08659)	-0.728
COC(=O)[C@@]1(Cc2ccc(F)cc2)[C@H]2c3cc(C(=O)N(C)C)n(C)c3C[C@H]2CN1C(=O)c1ccccc1	Luciferin 4-monooxygenase (Photinus pyralis) (UniProt P08659)	0.053

So what does the record say about z-score for CC(C)N1C(=O)c2ccccc2[C@](C)(C(=O)NCC(F)(F)F)[C@@H]1c1ccc(CO)cc1 ?
-1.17

So what does the record say about z-score for C=C1C(=O)C=C2CN(C(=O)c3ccccc3)[C@@](Cc3ccc(OC)cc3)(C(=O)OC)[C@@H]12 ?
3.22

So what does the record say about z-score for CCCC=C(CCC)[C@@H](NC(=O)c1ccc(C(F)(F)F)cc1)c1ccc(C(F)(F)F)cc1 ?
2.29

So what does the record say about z-score for COC(=O)[C@]1(Cc2ccccc2)N=C(c2ccc(OCCCO)cc2)O[C@@H]1c1ccccc1CN=[N+]=[N-] ?
-1.44

So what does the record say about z-score for COC(=O)c1cccc([C@H]2OC(=CC(=O)OC(C)C)C[C@@H](c3cccc(C(=O)OC)c3)O2)c1 ?
-1.74

====

ASSAY PROCEDURE: S. pombe growth modifiers, basal conditions – strain 972, OD600, 24 h, no modulator, primary screen (AID 1090);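 also: basal condition with compound alone and no growth modifier present; test concentration not given here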
MEASUREMENT SETUP: S. pombe 972 growth, higher = more signal, called active from +8 up or from −8 down
The source made the active and inactive calls.
PROPERTY LABEL: z-score

Below: 5 compounds and their reported z-score.
COMPOUND	z-score
COCCOC(=O)N1C(=O)[C@@]2(c3cc(C#CCCO)ccc31)[C@H](c1ccc(OCCO)cc1)N1[C@H](c3ccccc3)[C@H](c3ccccc3)OC(=O)[C@H]1[C@@H]2C(=O)N1CCCCCCC1	0.277 (inactive)
NC(=O)NCC#Cc1ccc2c(c1)[C@]1(C(=O)N2)[C@H](c2ccc(OCCO)cc2)N2[C@H](c3ccccc3)[C@H](c3ccccc3)OC(=O)[C@H]2[C@@H]1C(=O)NC[C@H](O)c1ccccc1	1.98 (inactive)
CC(=O)c1ccc(C(O)C2C=CC3C(=O)N(c4ccccc4)C(=O)C3N2Nc2ccc(C(C)C)cc2)cc1 (stereo unspecified)	1.55 (inactive)
COCCOC(=O)N1C(=O)[C@@]2(c3ccccc31)[C@H](C(=O)N1CCN(c3ncccn3)CC1)[C@H]1C(=O)O[C@H](c3ccccc3)[C@H](c3ccccc3)N1[C@@H]2c1ccccc1OCCO	0.185 (inactive)
O=C1O[C@H](c2ccccc2)[C@H](c2ccccc2)N2[C@H]1[C@@H](C(=O)N1CCN(c3ncccn3)CC1)[C@]1(C(=O)Nc3ccc(C#CCCO)cc31)[C@H]2c1ccc(O)cc1	-0.443 (inactive)

So what does the record say about z-score for COc1ccc([Si](C)(C)[C@H]2[C@H](CC(=O)N3Cc4ccccc4C[C@H]3CO)O[C@@]3(C(=O)N(c4ccccc4)c4ccccc43)[C@@H]2C)cc1 ?
-1.61 (inactive)

So what does the record say about z-score for C[C@]1(C(=O)O)c2ccccc2C(=O)N(Cc2cc(F)cc(C(F)(F)F)c2)[C@H]1c1ccc(CO)cc1 ?
-1.3 (inactive)

So what does the record say about z-score for COC(=O)[C@]1(CCC(=O)OC(C)(C)C)N=C(c2ccc(OCCCO)cc2)O[C@@H]1c1ccccc1N=[N+]=[N-] ?
-0.491 (inactive)

So what does the record say about z-score for CCCC=C(CCC)[C@@H](NC(=O)c1ccc(C(F)(F)F)cc1)c1ccc(C(F)(F)F)cc1 ?
1.17 (inactive)

====

Tested on: Fibrinogen (Alexa647-labelled)
ASSAY PROCEDURE: Alexa647-fibrinogen binding to printed small molecules – biochemical, small-molecule microarray, 635/667 nm fluorescence, artefact control for SMM control-protein annotation, profiling panel (AID 1131);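 also: z-score merges 667 nm fluorescence with per-spot signal-to-noise over triplicate slides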
MEASUREMENT SETUP: fibrinogen-A647 binding fluorescence, higher = more signal
Decision: composite z-score >= 0.4 yields satisfied, all other cases yield not satisfied.

MOLECULE	LABEL CLASS
O=C1[C@H]2C=C(I)[C@H](C[C@@H]2c2ccccc2)[C@@]12CO2	not satisfied
CCCCCCc1nc(Cc2cc(OC)c(OC)c(OC)c2)cc2c1[Si](C(C)C)(C(C)C)O[C@H]2c1ccccc1	not satisfied
CCCC[C@H]1OB(O)C[C@H]2C1=C(COc1ccccc1)C[C@H]1C(=O)C=CC(=O)[C@H]12	satisfied
CC(C)C[C@H]1NC(=O)C([C@@H](C)OCc2ccccc2)NC(=O)[C@@]23C(=O)N[C@@H](Cc4ccccc4)C2[C@H](C)[C@@]2(C)O[C@H]2C3/C=C/C/C=C\CNC1=O (stereo partly specified)	satisfied
C=C(COC)C(=O)CC[C@@H](OC(C)=O)c1ccccc1OCCO	not satisfied
CN(C)CCCNC(=O)[C@@]1(Cc2ccccc2I)c2ccccc2C(=O)N(C2CCCCC2)[C@H]1c1ccc(CO)cc1	satisfied
O=C1C2C=CC(C(O)c3cccs3)N(Nc3ccc([N+](=O)[O-])cc3)C2C(=O)N1c1ccccc1 (stereo unspecified)	satisfied
COc1ccc([Si](C)(C)[C@@H]2[C@@H](CC(=O)N3Cc4ccccc4C[C@H]3CO)O[C@]3(C(=O)N(Cc4cccc(N5CCOC5=O)c4)c4ccccc43)[C@H]2C)cc1	not satisfied
C=C(CCCC)C(=O)CC[C@H](OC(=O)c1ccccc1-c1ccccc1C(=O)O)c1ccc(OCCO)cc1	not satisfied
CC(C)C[C@@H]1NC(=O)[C@@]23C(=O)N[C@@H](Cc4ccccc4)C2[C@H](C)[C@@]2(C)O[C@H]2C3/C=C/C/C=C\CNC(=O)CNC1=O (stereo partly specified)	not satisfied

Could you verify whether the entry CC(C)(C)N1CC=CC23O[C@@H]4/C=C\CCCOC(=O)C4[C@H]2C(=O)N(CCCO)[C@@H]3C1=O (stereo partly specified) shows composite z-score of no less than 0.4?
not satisfied

Could you verify whether the entry O=C(NCc1ccc(F)cc1)[C@H]1C[C@H]2C(=O)N3CCC[C@H]3C(=O)N2[C@H]1c1ccc(O)cc1 shows composite z-score of no less than 0.4?
not satisfied

Could you verify whether the entry COC(=O)[C@H](Cc1ccccc1)N1CC2=CCCC=C[C@@H]2[C@H]1[C@H](O)Cc1ccccc1 shows composite z-score of no less than 0.4?
satisfied

Could you verify whether the entry COc1ccc([Si](C)(C)[C@H]2[C@H](CCO)O[C@@]3(C(=O)N(Cc4ccc(NC(=O)[C@H](C)O)cc4)c4ccccc43)[C@@H]2C)cc1 shows composite z-score of no less than 0.4?
satisfied

Could you verify whether the entry O=C1C=C(c2ccccc2)C(=O)C2=C1CC([C@H]1Oc3ccccc3S(=O)(=O)N3CCC[C@@H]13)=CC2 shows composite z-score of no less than 0.4?
not satisfied

Could you verify whether the entry CCCNC(=O)[C@@]1(c2ccc([N+](=O)[O-])cc2)CC(=O)N(C(C)C)[C@@H]1c1ccc(CO)cc1 shows composite z-score of no less than 0.4?
not satisfied

Could you verify whether the entry CCOC(=O)C1=CC[C@@H](c2ccc(OC)cc2)N(S(=O)(=O)c2ccc(C)cc2)[C@H]1CC shows composite z-score of no less than 0.4?
satisfied

Could you verify whether the entry COc1ccc(C(O)C2C=CC3C(=O)N(c4ccccc4)C(=O)C3N2Nc2ccc(C#N)cc2)cc1OCc1ccccc1 (stereo unspecified) shows composite z-score of no less than 0.4?
satisfied

Could you verify whether the entry Cc1ccc(N2C(=O)c3ccccc3[C@](C)(C(=O)NCCCN(C)C)[C@@H]2c2ccc(CO)cc2)nc1 shows composite z-score of no less than 0.4?
not satisfied

Could you verify whether the entry Cc1ccc(S[C@]2(C(=O)NCCCN(C)C)CC(=O)N(C3Cc4ccccc4C3)[C@@H]2c2ccc(CO)cc2I)cc1 shows composite z-score of no less than 0.4?
satisfied
